- testedSystem: T1, Cynomolgus TCR(AEA41865/AEA41866)-zipper protein (cynomolgus monkey)
- T1 construct: also called cyTCR-zipper protein; cynoTCR zipper
- T1 TCR alpha: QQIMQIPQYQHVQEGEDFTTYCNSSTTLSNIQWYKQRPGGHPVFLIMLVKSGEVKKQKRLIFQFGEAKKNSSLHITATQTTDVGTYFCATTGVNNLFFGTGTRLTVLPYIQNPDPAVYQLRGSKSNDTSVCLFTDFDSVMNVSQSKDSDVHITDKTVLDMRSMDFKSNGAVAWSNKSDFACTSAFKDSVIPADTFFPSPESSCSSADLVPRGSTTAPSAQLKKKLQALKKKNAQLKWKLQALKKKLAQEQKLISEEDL
- T1 TCR beta: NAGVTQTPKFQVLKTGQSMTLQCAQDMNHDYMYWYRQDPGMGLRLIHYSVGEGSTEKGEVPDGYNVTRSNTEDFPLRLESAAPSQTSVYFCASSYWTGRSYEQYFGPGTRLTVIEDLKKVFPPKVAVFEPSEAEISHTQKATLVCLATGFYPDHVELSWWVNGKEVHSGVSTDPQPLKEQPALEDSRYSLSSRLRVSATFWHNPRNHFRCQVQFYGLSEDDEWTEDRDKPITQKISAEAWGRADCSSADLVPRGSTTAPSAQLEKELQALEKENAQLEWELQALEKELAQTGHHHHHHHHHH
- testDetails: SPR ProteOn off-rate screen
quantity: koff (s⁻¹)

Some entries whose results are on file:
{"columns": ["binder", "quantity", "resultValue"],
 "data": [
  ["T017000233 (VHH) VHH: EVQLVESGGGVVQPGGSLRLSCVASGDVHKINFLGWYRQAPGKEREKVAHISIGDQSDYADSAKGRFTISRDESKNMVYLQMNSLRPEDTALYFCRAFSRIYPYDYWGQGTLVTVSS", "koff", 0.0102],
  ["T017000238 (VHH) VHH: EVQLVESGGGVVQPGGSLRLSCVASGDVHKINFLGWYRQAPGKEREKVAHISIGDETDYADSAKGRFTISRDESKNMVYLQMNSLRPEDTALYFCRAFSRIYPYDYWGQGTLVTVSS", "koff", 0.00957],
  ["T017000232 (VHH) VHH: EVQLVESGGGVVQPGGSLRLSCVASGDVHKINFLGWYRQAPGKEREKVAHISIGDQVDYADSAKGRFTISRDESKNMVYLQMNSLRPEDTALYFCRAFSRIYPYDYWGQGTLVTVSS", "koff", 0.00895],
  ["T017000254 (VHH) VHH: EVQLVESGGGVVQPGGSLRLSCVASGDVHKINFLGWYRQAPGKEREKVAHISIGDRTDYADSAKGRFTISRDESKNMVYLQMNSLRPEDTALYFCRAFSRIYPYDYWGQGTLVTVSS", "koff", 0.0118],
  ["T017000245 (VHH) VHH: EVQLVESGGGVVQPGGSLRLSCVASGDVHKINFLGWYRQAPGKEREKVAHISIADQTDYADSAKGRFTISRDESKNMVYLQMNSLRPEDTALYFCRAFSRIYPYDYWGQGTLVTVSS", "koff", 0.00936]
]}

(1) T017000258 (VHH) VHH: EVQLVESGGGVVQPGGSLRLSCVASGDVHKINFLGWYRQAPGKEREKVAHISIGEQTDYADSAKGRFTISRDESKNMVYLQMNSLRPEDTALYFCRAFSRIYPYDYWGQGTLVTVSS
(2) T017000241 (VHH) VHH: EVQLVESGGGVVQPGGSLRLSCVASGDVHKINFLGWYRQAPGKEREKVAHISIGDQTNYADSAKGRFTISRDESKNMVYLQMNSLRPEDTALYFCRAFSRIYPYDYWGQGTLVTVSS
Exam item: Would you mind telling me which has the lower recorded koff between 1 and 2 ? // return label of chosen record
Marked response: 1
(1: 0.0107 s⁻¹, 2: 0.0167 s⁻¹)
